This collection of values is drawn from ChEMBL document CHEMBL4842348.

ASSAY_NAME: Tmax in rhesus monkey at 2 mg/kg, po
Type: ADME, organism-based, Macaca mulatta
CONDITIONS_USED: in vivo
READOUT_NAME: Tmax
Hey, just the number and the unit after it is fine.

-- ask Could you tell me which Tmax is on file for COc1ncc(-c2ccc(C(=O)O)cc2C)cc1-c1ccc(C(F)(F)F)cc1[C@@H]1CC[C@H]2[C@@H](c3cc(C(F)(F)F)cc(C(F)(F)F)c3)OC(=O)N12 ?
-- reply 6.7 h

====

ASSAY_NAME: Cmax in high fat diet fed dog at 1 mg/kg, po in Imwitor/Tween
Type: ADME, organism-based, Canis lupus familiaris
Design: route oral, dose 1 mg/kg
CONDITIONS_USED: in vivo
READOUT_NAME: Cmax (nM)
I only need the number, in nM, no unit after it.

-- ask I am curious: what Cmax value has been reported for COc1ncc(-c2ccc(C(=O)O)cc2C)cc1-c1ccc(C(F)(F)F)cc1[C@@H]1CC[C@H]2[C@@H](c3cc(C(F)(F)F)cc(C(F)(F)F)c3)OC(=O)N12 ?
-- reply 1300
